Target: FAD-linked sulfhydryl oxidase ALR (Homo sapiens, UniProt P55789)
Sequence (P55789 whole entry): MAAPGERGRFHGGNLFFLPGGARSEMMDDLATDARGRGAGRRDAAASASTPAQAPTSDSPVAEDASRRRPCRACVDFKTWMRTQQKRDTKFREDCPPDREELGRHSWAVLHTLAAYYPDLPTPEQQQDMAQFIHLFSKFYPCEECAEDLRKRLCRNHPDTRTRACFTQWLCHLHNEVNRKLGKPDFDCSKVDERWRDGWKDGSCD
Assay: ALR-catalysed DTT oxidation blockers – biochemical, H2O2 detection, luminescence, cherry-pick, dose response (AID 493248)
Active and inactive are the calls of the source.

>  <molecule>
CC1CCCC(C)N1c1nnc(N)s1 (stereo not drawn)

>  <AC50>
2.31 µM (active)

$$$$
>  <molecule>
Oc1ccc(-c2cn3cc(C(F)(F)F)ccc3n2)cc1

>  <AC50>
3.4 µM (active)

$$$$
>  <molecule>
O=C(NNCc1ccc(O)cc1)c1ccccc1Cl

>  <AC50>
0.695 µM (active)

$$$$
>  <molecule>
CCN(CC)c1ccc(NC(=O)Cn2cc3c(n2)CCC(C)C3)c(C)c1 (stereo not drawn)

>  <AC50>
48.8 µM (active)

$$$$
>  <molecule>
Cc1ccc2c(c1)N(C)/C(=C/c1cccc[n+]1C)S2

>  <AC50>
63.1 µM (active)

$$$$
>  <molecule>
Cc1cc(O)n2cc(-c3ccccc3)nc2n1

>  <AC50>
13.9 µM (active)

$$$$
>  <molecule>
O=S(=O)(Nc1ccc2c(c1)OCO2)c1ccc(F)c(F)c1

>  <AC50>
5.12 µM (active)

$$$$
>  <molecule>
COc1ccc(CCNC(=O)c2cc(-c3cc(C)ccc3O)n[nH]2)cc1OC

>  <AC50>
85.6 µM (active)

$$$$

====

Target: Luciferin 4-monooxygenase (Photinus pyralis)
Sequence (P08659 whole entry): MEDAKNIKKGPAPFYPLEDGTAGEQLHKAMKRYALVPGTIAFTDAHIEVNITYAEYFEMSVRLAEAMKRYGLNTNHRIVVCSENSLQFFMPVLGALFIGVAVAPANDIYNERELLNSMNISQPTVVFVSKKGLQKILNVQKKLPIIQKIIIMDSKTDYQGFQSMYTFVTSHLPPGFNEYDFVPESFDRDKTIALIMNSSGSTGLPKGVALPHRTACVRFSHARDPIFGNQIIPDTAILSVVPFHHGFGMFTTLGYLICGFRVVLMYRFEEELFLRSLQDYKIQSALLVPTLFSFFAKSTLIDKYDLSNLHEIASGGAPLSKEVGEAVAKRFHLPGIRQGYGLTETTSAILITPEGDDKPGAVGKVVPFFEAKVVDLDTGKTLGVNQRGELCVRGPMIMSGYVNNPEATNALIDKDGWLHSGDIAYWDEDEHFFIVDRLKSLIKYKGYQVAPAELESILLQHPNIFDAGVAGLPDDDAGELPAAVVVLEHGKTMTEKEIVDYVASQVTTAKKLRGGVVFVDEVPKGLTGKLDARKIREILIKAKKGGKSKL
Experiment: inhibition of purified Photinus pyralis luciferase – biochemical, luminescence, dose response (AID 1891)
Activity calls are given as the source filed them.
// reported EC50 per item
quantityKind: EC50

>  <compound>
CSc1ccc(/C=N/NC(=O)c2cc(O)cc(O)c2)cc1

>  <systemName>
Luciferin 4-monooxygenase (Photinus pyralis)

>  <recordedResult>
1220 nM (active)

$$$$
>  <compound>
O=C(O)c1ccc(-c2noc(-c3ccccc3F)n2)cc1

>  <systemName>
Luciferin 4-monooxygenase (Photinus pyralis)

>  <recordedResult>
1450 nM (active)

$$$$
>  <compound>
COc1ccc(OC)c(Nc2nc(NCc3ccco3)c3ccccc3n2)c1

>  <systemName>
Luciferin 4-monooxygenase (Photinus pyralis)

>  <recordedResult>
18700 nM (active)

$$$$
>  <compound>
Oc1ccc(/C=C/c2ccc3ccccc3n2)cc1

>  <systemName>
Luciferin 4-monooxygenase (Photinus pyralis)

>  <recordedResult>
161 nM (active)

$$$$
>  <compound>
CC(CCc1ccco1)NC(=O)CCc1nnc2ccc(NCc3ccccc3)nn12 (stereo unspecified)

>  <systemName>
Luciferin 4-monooxygenase (Photinus pyralis)

>  <recordedResult>
> 112000 nM (not active)

$$$$
>  <compound>
O=c1oc(Nc2cccc(Cl)c2)nc2ccccc12

>  <systemName>
Luciferin 4-monooxygenase (Photinus pyralis)

>  <recordedResult>
37700 nM (active)

$$$$
>  <compound>
CCCCn1c(N)c(N(CC(C)C)C(=O)c2ccc(Br)s2)c(=O)[nH]c1=O

>  <systemName>
Luciferin 4-monooxygenase (Photinus pyralis)

>  <recordedResult>
> 112000 nM (not active)

$$$$
>  <compound>
CCc1ccc(NC(=O)Nc2ccsc2C(=O)OC)cc1

>  <systemName>
Luciferin 4-monooxygenase (Photinus pyralis)

>  <recordedResult>
701 nM (active)

$$$$
>  <compound>
Cc1ccc(C(=O)ONc2ccc(N=O)cc2)cc1

>  <systemName>
Luciferin 4-monooxygenase (Photinus pyralis)

>  <recordedResult>
< 88 nM (active)

$$$$
>  <compound>
Oc1ccc(/C=N/Nc2cccc(Cl)n2)c(O)c1

>  <systemName>
Luciferin 4-monooxygenase (Photinus pyralis)

>  <recordedResult>
1660 nM (active)

$$$$
>  <compound>
COc1cc(C(=O)N2CCN(c3ccc([N+](=O)[O-])cc3)CC2)ccc1OCc1c(C)noc1C

>  <systemName>
Luciferin 4-monooxygenase (Photinus pyralis)

>  <recordedResult>
40200 nM (active)

$$$$

====

// reported IC50 per item
Biological target: Rac GTPase-activating protein 1 (Homo sapiens, UniProt Q9H0H5)
Sequence (Q9H0H5 whole entry): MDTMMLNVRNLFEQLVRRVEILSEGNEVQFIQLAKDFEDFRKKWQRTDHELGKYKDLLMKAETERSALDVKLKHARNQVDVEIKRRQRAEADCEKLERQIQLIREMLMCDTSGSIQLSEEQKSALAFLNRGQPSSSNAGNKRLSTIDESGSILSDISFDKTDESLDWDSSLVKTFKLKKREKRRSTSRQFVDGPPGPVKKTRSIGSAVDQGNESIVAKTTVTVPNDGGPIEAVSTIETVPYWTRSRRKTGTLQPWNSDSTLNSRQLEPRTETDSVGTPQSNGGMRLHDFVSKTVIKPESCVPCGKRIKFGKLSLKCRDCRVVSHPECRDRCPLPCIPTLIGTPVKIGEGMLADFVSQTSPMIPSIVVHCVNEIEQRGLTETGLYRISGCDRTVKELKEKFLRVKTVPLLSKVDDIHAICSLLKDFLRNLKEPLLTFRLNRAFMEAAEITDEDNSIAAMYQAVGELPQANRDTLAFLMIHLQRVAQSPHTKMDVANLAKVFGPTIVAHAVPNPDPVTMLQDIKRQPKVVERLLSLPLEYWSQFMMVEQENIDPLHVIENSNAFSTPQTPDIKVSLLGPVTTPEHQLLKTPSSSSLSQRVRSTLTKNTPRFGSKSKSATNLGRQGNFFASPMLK
Assay: blockers of MgcRacGAP-driven Rac1 GTP hydrolysis – biochemical, ADP Hunter fluorescence, primary and confirmatory, confirmation (AID 624330)
Assay type: functional
Active and inactive are the calls of the source.

>  <compoundStructure>
COc1cc(/C=N/NC(=O)/C(=C\c2ccc3c(c2)OCO3)NC(=O)c2ccccc2)ccc1O

>  <IC50>
79.4 µM (active)

$$$$
>  <compoundStructure>
CC(/C=C/c1ccc(O)cc1)=N/O

>  <IC50>
10.5 µM (active)

$$$$
>  <compoundStructure>
Cc1ccc(C(C)C)c(OCCCCN2CCNCC2)c1

>  <IC50>
87.9 µM (active)

$$$$
>  <compoundStructure>
COc1ccc(Br)cc1CN1CCC(N2CCCC2)CC1

>  <IC50>
59.6 µM (active)

$$$$
>  <compoundStructure>
COc1cc(/C=N/NC(=O)CCn2c3ccccc3c3ccccc32)ccc1O

>  <IC50>
85.8 µM (active)

$$$$
>  <compoundStructure>
Oc1ccc(/C=N/Nc2cccc(Cl)n2)c(O)c1

>  <IC50>
29 µM (active)

$$$$
>  <compoundStructure>
COc1cc(/C=C/C(=O)OCC(=O)N2CCC(Cc3ccccc3)CC2)ccc1O

>  <IC50>
47.7 µM (active)

$$$$
>  <compoundStructure>
CCN1CCN(CCOc2ccccc2OCc2ccccc2)CC1

>  <IC50>
94.5 µM (active)

$$$$
>  <compoundStructure>
COc1cc(/C=N\NC(=O)CNC(=O)C(c2ccccc2)c2ccccc2)ccc1O

>  <IC50>
54.6 µM (active)

$$$$
>  <compoundStructure>
COc1cc([C@H]2OC[C@H]3[C@@H]2CO[C@H]3c2ccc(O)c(OC)c2)ccc1O

>  <IC50>
171 µM (active)

$$$$
>  <compoundStructure>
COc1ccc(Oc2c(C)n[nH]c2-c2ccc(O)cc2O)cc1

>  <IC50>
47.4 µM (active)

$$$$
>  <compoundStructure>
Oc1ccc(/C=C/c2ccc3ccccc3n2)cc1

>  <IC50>
28 µM (active)

$$$$

====

Target: Ras and Rab interactor 1/Tyrosine-protein kinase ABL1 (Homo sapiens, UniProt P00519+Q13671);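 further: biochemical TR-FRET dose-response test measuring inhibition of binding between Rin1 and Abl proteins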
Sequence (P00519 whole entry): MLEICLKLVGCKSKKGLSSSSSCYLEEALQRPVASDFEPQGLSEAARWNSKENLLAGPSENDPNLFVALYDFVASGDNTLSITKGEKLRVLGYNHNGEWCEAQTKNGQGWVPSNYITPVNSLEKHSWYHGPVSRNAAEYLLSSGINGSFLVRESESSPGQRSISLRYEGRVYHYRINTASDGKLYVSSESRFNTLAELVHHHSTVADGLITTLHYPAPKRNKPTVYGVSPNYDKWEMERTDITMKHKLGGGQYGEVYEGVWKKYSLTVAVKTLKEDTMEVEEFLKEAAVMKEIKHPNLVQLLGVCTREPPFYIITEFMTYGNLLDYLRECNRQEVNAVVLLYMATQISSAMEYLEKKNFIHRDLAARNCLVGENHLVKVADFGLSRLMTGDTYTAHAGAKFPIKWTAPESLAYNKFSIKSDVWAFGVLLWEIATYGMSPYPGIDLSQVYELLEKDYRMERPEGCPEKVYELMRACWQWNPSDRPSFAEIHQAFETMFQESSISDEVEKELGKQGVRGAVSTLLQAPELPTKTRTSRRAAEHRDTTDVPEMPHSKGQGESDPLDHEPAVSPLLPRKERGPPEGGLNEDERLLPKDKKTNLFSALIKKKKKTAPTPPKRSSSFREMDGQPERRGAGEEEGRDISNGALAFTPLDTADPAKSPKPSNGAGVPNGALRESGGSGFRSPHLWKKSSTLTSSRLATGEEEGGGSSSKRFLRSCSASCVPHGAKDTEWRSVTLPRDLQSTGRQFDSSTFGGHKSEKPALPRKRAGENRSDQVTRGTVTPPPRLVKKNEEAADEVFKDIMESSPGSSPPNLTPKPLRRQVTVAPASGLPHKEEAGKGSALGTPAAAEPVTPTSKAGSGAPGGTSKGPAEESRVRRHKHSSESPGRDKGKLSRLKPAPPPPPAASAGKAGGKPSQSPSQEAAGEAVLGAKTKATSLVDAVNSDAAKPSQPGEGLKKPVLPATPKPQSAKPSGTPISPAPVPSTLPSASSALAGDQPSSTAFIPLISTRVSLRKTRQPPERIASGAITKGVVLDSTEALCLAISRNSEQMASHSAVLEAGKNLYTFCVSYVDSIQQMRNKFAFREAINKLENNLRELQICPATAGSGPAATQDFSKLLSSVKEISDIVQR
Sequence (Q13671 whole entry): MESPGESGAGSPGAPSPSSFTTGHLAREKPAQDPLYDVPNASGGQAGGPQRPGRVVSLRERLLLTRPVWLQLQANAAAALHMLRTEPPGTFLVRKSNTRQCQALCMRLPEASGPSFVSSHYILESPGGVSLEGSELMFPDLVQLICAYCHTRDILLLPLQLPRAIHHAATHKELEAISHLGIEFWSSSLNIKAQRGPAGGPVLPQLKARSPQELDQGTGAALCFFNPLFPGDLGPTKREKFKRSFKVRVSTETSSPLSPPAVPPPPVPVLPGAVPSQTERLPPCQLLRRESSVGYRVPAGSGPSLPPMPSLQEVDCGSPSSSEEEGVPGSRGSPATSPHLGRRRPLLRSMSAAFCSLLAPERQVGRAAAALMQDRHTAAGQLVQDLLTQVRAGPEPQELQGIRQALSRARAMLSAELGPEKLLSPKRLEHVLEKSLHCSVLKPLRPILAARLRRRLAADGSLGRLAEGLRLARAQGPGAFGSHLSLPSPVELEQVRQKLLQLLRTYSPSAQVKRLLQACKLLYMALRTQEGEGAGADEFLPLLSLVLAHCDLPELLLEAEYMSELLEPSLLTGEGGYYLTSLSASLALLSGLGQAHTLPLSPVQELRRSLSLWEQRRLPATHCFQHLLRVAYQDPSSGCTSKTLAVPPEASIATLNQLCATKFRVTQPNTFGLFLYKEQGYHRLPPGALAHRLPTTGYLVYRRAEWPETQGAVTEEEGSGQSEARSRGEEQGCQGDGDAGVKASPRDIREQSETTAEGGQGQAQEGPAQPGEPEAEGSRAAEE
Assay type: functional
Activity calls are given as the source filed them.
Labels: 1 (active), -1 (inactive)

>  <compoundStructure>
Cc1nc2c(=O)n(C)c(=O)nc-2n(C)n1

>  <assignedCategory>
1

$$$$
>  <compoundStructure>
Cc1nc(N/N=C/c2ccc(O)cc2O)cc(N2CCOCC2)n1

>  <assignedCategory>
1

$$$$
>  <compoundStructure>
COc1ccc(CCC(=O)Nc2c(-c3ccc(N(C)C)cc3)n[nH]c2O)cc1

>  <assignedCategory>
-1

$$$$
>  <compoundStructure>
Nc1nc(O)cc(NC2CCCC2)n1

>  <assignedCategory>
-1

$$$$

====

Target: Sentrin-specific protease 6 (Homo sapiens);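 further: Luminescence-based dose-response confirmatory assay of SENP6 inhibition, following up an ultra-high-throughput screen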
Sequence (Q9GZR1 whole entry): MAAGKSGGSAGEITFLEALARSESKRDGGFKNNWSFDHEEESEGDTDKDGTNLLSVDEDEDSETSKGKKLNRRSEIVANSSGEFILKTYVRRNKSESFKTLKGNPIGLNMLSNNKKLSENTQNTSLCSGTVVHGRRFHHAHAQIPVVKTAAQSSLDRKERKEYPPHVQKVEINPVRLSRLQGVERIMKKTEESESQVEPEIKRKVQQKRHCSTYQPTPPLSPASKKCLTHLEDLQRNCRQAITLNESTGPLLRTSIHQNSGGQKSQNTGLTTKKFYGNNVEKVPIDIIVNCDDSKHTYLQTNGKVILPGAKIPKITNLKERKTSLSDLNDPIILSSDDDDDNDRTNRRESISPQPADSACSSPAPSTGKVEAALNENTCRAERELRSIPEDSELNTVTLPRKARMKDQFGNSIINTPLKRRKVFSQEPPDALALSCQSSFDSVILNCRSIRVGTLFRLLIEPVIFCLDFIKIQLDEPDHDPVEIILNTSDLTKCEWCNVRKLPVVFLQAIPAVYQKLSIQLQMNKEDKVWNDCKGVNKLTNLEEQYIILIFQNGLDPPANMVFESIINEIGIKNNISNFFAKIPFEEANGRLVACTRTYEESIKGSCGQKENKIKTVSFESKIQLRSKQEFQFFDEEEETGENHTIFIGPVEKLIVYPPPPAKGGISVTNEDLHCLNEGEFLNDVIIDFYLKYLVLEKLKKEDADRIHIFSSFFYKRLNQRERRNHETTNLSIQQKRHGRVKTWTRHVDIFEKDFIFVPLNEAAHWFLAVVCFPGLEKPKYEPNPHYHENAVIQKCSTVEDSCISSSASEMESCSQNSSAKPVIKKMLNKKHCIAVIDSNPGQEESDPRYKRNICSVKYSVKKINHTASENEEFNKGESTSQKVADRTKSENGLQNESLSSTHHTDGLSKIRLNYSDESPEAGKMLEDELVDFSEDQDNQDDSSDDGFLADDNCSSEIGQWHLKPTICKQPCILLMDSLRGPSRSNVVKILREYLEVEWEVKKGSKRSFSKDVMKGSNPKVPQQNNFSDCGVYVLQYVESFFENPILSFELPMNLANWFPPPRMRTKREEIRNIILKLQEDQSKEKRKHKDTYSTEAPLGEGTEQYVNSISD
Type: functional
Calls of active or inactive are those of the source.
Labels: active, inactive

>  <compoundStructure>
COc1cc2ccccc2cc1C(=O)Nc1ccccc1Cl

>  <assignedCategory>
active

$$$$
>  <compoundStructure>
Oc1nc(Nc2ccccc2Cl)cc2ccccc12

>  <assignedCategory>
active

$$$$
>  <compoundStructure>
COc1ccc(/C=N/Nc2nncc3ccccc23)c(OC)c1

>  <assignedCategory>
active

$$$$
>  <compoundStructure>
Cc1ccc(C(=O)Nc2nc(C)c(C(=O)Nc3ccc4c(c3)CCC4)s2)cc1

>  <assignedCategory>
inactive

$$$$
>  <compoundStructure>
O=C(N/N=C/c1cccc(Oc2ccccc2)c1)c1cccc(O)c1

>  <assignedCategory>
active

$$$$
